experiment: Metabolic stability in Sprague-Dawley rat liver microsomes assessed as parent compound remaining after 60 mins in presence of NADPH by HPLC-UV-MS analysis; type: ADME, Microsome; conditions: read-out: Stability
experimental_endpoint: remaining at 1 h (%)
Give the value in % but do not write % after it.

Solved entries:
> print(dat)
                            molecule.smiles  experimental.endpoint  unit.info  data.value
1  COc1ccc2c(c1O)NC(=O)CN=C2c1cc(OC)c(OC)c(OC)c1       remaining at 1 h          %        85.5
2  COc1ccc2c(c1O)NC(=O)CN=C2c1cc(OC)c(OC)c([Se]C)c1       remaining at 1 h          %        86.3

Need remaining at 1 h, item "COc1ccc(/C=C\c2cc(OC)c(OC)c(OC)c2)cc1O"
36.4

----------
experiment: in vitro; details: Sprague-Dawley, rat, liver microsomes
Description: Metabolic stability in Sprague-Dawley rat liver microsomes assessed as parent compound remaining after 180 mins in presence of NADPH by HPLC-UV-MS analysis
experimental_endpoint: remaining at 3 h (%)
Give the value in % but do not write % after it.

> print(dat)
                            molecule.smiles  experimental.endpoint  unit.info  data.value
1  COc1ccc2c(c1O)NC(=O)CN=C2c1cc(OC)c(OC)c([Se]C)c1       remaining at 3 h          %        50.4

Now turn to the next compound.
Need remaining at 3 h, item "COc1ccc2c(c1O)NC(=O)CN=C2c1cc(OC)c(OC)c(OC)c1"
49.9

----------
tested on: HCT-116; assay: Antiproliferative activity against human HCT116 cells assessed as cell growth inhibition measured after 48 hrs by MTT assay; format: functional, cell-based; settings: HCT-116, 48 h
experimental_endpoint: log10 IC50 (log10 of the value in nM)
Answers are given as log10 of IC50 in nM.

Solved entries:
> print(dat)
                                   molecule  study.target  data.value
1  COc1ccc2c(c1O)NC(=O)CN=C2c1cc(OC)c(OC)c(SC)c1       HCT-116        1.03
2  COc1ccc2c(c1O)NC(=O)C(C)N=C2c1cc(OC)c(OC)c(SC)c1 (stereo not given)       HCT-116        1.95
3  COc1ccc2c(c1O)NC(=O)CN=C2c1cc(OC)c(OC)c([Se]C)c1       HCT-116        0.95
4  COc1ccc2c(c1O)NC(=O)CN=C2c1ccc(OC)c2c1OC(C)(C)C=C2       HCT-116        2.32
5  COc1ccc2c(c1O)NC(=O)CN=C2c1cc(OC)c(OC)c(OC)c1       HCT-116        1.22

Tell me reported log10 IC50 for "COc1cc(-c2c(C)c(=O)[nH]c3c(O)c(OC)ccc23)cc(SC)c1OC" , tested with HCT-116.
2.36

Tell me reported log10 IC50 for "COc1ccc2c(c1O)NC(=O)CN=C2c1cc(OC)c(OC)c(N(C)C)c1" , tested with HCT-116.
1.72

Tell me reported log10 IC50 for "COc1cc(-c2cc(=O)[nH]c3c(O)c(OC)ccc23)cc([Se]C)c1OC" , tested with HCT-116.
2.09

Tell me reported log10 IC50 for "COc1ccc2c(c1O)NC(=O)CN=C2c1cc2c(c(OC)c1)OC(C)(C)C=C2" , tested with HCT-116.
1.14

Tell me reported log10 IC50 for "COc1cc(-c2cc(=O)[nH]c3c(O)c(OC)ccc23)cc(SC)c1OC" , tested with HCT-116.
1.46
